# Experimental System: T1, CRH (NT-Biotin) (human and mouse (same sequence), not fully specified; biotin at the N-terminus)
# T1 peptide: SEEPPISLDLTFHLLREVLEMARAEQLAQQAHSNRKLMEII
# Protocol Notes: ELISA, biotinylated CRH on streptavidin plate
pEC50: −log10 of the molar value.
Measured Property: pEC50

Binder: PR302041 (antibody, human IgG1, kappa, V domains shown, humanized variant of PR301777) VH: EMQLVESGGGLVQPGGSLRLSCAASGFTFSNYWMNWVRQAPGKGLEWVAEIRLKSNNYATHYAESVKGRFTISRDDSKSSVYLQMNSLKTEDTAVYYCTVGTLVYWGQGTLVTVSS VL: DIQLTQSPSSLSASVGDRVTITCRASQSVSTSTYNYMHWFQQKPGKAPKLLIKFASNLESGVPSRFSGSGSGTDFTLTISSLQPEDTATYYCQHSWEIPYTFGQGTKLEIKR
Assay Result: 10.20

Binder: PR302038 (antibody, human IgG1, kappa, V domains shown, humanized variant of PR301777) VH: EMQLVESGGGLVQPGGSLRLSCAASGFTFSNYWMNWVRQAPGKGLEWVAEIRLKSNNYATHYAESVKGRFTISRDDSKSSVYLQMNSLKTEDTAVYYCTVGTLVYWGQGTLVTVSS VL: EIVLTQSPATLSLSPGERATLSCRASQSVSTSTYNYMHWFQQKPGQAPRLLIKFASNLESGIPARFSGSGSGTDFTLTISSLEPEDTAVYYCQHSWEIPYTFGQGTKLEIKR
Assay Result: 10.19
